experiment: activity coefficient (dimensionless); of the first substance listed, at infinite dilution; xn = mol fraction of the nth substance listed; conditions: 358.15 K; 101.33 kPa; Liquid; Chromatography; x1 = 0
Property: activity coefficient; scope: individual compounds

- compound: "C#CCCCC [1-hexyne] + CCCCCCCCCCCC[N+](C)(C)CCOc1ccccc1.O=S(=O)([N-]S(=O)(=O)C(F)(F)F)C(F)(F)F"
  activity coefficient: 1.51
- compound: "c1ccncc1 [pyridine] + CCCCCCCCCCCC[N+](C)(C)CCOc1ccccc1.O=S(=O)([N-]S(=O)(=O)C(F)(F)F)C(F)(F)F"
  activity coefficient: 0.346
- compound: "CCOC(C)=O [ethyl acetate] + CCCCCCCCCCCC[N+](C)(C)CCOc1ccccc1.O=S(=O)([N-]S(=O)(=O)C(F)(F)F)C(F)(F)F"
  activity coefficient: 0.62
